Origin of measurements: PubChem BioAssay (NCATS)

target: Glutaminase kidney isoform, mitochondrial (Homo sapiens) (UniProt O94925); assay: qHTS for Inhibitors of Glutaminase (GLS): LOPAC Validation (AID 624146); conditions: glutaminase enzyme activity inhibition; series mostly up to 46.1 µM; further: nearly all actives have a fitted effect of over 60% in size
Sequence (O94925 whole entry, looked up, canonical isoform): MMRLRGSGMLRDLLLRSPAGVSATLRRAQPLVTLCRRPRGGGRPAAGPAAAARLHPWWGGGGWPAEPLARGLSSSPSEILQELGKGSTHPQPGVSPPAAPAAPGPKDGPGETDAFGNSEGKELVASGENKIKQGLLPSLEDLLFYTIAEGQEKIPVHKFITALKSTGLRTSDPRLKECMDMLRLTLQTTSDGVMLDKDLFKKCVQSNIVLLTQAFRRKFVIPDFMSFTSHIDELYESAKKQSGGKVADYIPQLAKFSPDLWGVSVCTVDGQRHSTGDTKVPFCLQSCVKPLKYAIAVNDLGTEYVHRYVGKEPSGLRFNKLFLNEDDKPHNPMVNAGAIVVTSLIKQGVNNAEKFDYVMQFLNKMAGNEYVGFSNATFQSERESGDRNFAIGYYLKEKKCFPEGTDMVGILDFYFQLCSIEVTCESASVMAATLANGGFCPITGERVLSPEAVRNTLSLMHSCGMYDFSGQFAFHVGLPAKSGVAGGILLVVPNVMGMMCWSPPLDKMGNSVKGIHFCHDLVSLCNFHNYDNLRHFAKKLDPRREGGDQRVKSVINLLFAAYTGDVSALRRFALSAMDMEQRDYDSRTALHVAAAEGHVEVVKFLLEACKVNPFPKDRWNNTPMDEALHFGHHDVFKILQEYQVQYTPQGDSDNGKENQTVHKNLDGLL
Inconclusive results are not listed. The source made the active and inactive calls. The call rests on the fitted dose curve; in most records, active means well fitted inhibition curve with a large enough effect; inconclusive means small, poorly fitted or top-dose-only effect; inactive means no such curve, though single readings can be large or run the other way.
Labels: Y = active, N = inactive

| COMPOUND | STUDY SYSTEM | CATEGORY |
| --- | --- | --- |
| Brc1c(Br)c(Br)c2[nH]cnc2c1Br | Glutaminase kidney isoform, mitochondrial (Homo sapiens) (UniProt O94925) | N |
| CCCCCCCCCCC/C=C\C(C)(C)/C=C\CCCC(=O)O | Glutaminase kidney isoform, mitochondrial (Homo sapiens) (UniProt O94925) | N |
| [N-]=[N+]=Nc1ccc(C(=O)CSC[C@H](NC(=O)CC[C@H](N)C(=O)O)C(=O)NCC(=O)O)cc1 | Glutaminase kidney isoform, mitochondrial (Homo sapiens) (UniProt O94925) | N |
| N[C@@H](CCC(=O)N[C@H](CSN=O)C(=O)NCC(=O)O)C(=O)O | Glutaminase kidney isoform, mitochondrial (Homo sapiens) (UniProt O94925) | N |
| CC(=O)SC1CC2=CC(=O)CC[C@]2(C)C2CC[C@@]3(C)C(CC[C@@]34CCC(=O)O4)C12 (stereo partly drawn) | Glutaminase kidney isoform, mitochondrial (Homo sapiens) (UniProt O94925) | N |
| CC(C)NCC(O)COc1ccc(CC(N)=O)cc1 (stereo not drawn) | Glutaminase kidney isoform, mitochondrial (Homo sapiens) (UniProt O94925) | N |
| O=c1oc(Cl)c(Cl)c2ccccc12 | Glutaminase kidney isoform, mitochondrial (Homo sapiens) (UniProt O94925) | N |
| CC[n+]1c(/C=C/C=C2/N(C)c3ccccc3C2(C)C)sc2ccccc21 | Glutaminase kidney isoform, mitochondrial (Homo sapiens) (UniProt O94925) | Y |

* * *

molecular target: D(1A) dopamine receptor (Homo sapiens); test: HTS Assay for Allosteric Agonists of the Human D1 Dopamine Receptor: Primary Screen for Potentiators (AID 488982); settings: HEK293 T-REx D1 inducible cells, calcium flux, kinetic fluorescence; series mostly up to 8.37 µM
Results filed as inconclusive are left out. Activity calls are given as the source filed them. Calls come from the whole dose curve; as a rule, active = well fitted activation curve with a large enough effect; inconclusive = small, poorly fitted or top-dose-only effect; inactive = no such curve, though single readings can be large or run the other way.
Labels: yes (1) = active, no (0) = inactive

| COMPOUND | CATEGORY |
| --- | --- |
| NCCS(=O)O | no (0) |
| O=S(=O)(c1cccc2c(Cl)cccc12)N1CCCNCC1 | no (0) |
| N[C@H](C(=O)O)[C@H]1C[C@@H]1C(=O)O | no (0) |
| CNC(=O)c1cc2c(cn1)[nH]c1ccccc12 | no (0) |
| CCCCCCC(=O)OC1CC(C)(C)NC(C)(C)C1 | no (0) |
| CCCCCCCCCCC(C)(C)C(=O)Nc1c(OC)cc(OC)cc1OC | no (0) |
| CCN1C(=O)C=CC1=O | no (0) |
| N=C(N)c1ccc(N)cc1 | no (0) |
| CCCCCCCCCCCCCCSCC(=O)O | no (0) |
| NC(N)=NC(N)=Nc1ccccc1 | no (0) |
| CC(=O)NCCc1c[nH]c2ccc(O)cc12 | no (0) |
| O=c1onc2cnc3ccccc3n12 | no (0) |
| OC[C@H]1O[C@H](n2cnc3c(N[C@H]4CCC[C@@H]4O)ncnc32)[C@H](O)[C@@H]1O | no (0) |
| C=CCN1CCc2c(cc(O)c(O)c2Br)[C@@H](c2ccccc2)C1 | no (0) |
| CN[C@H](CC(=O)O)C(=O)O | no (0) |
| CNCCc1cnc(CCC(c2ccccc2)c2ccccc2)[nH]1 | no (0) |
| CCn1c(=O)[nH]c2cc(Cl)c(Cl)cc21 | no (0) |
| CCc1ccc2c(-c3cccc(Cl)c3)nc(=O)n(CC)c2n1 | no (0) |
| O=C(O)Cc1ccc(O)c(O)c1 | no (0) |
| c1ccc2c(c1)CCC[C@H]2Nc1nc2ccccc2[nH]1 | no (0) |
| COc1ccc(CCN(C)CCc2ccc(OC)c(OC)c2)cc1OC | no (0) |
| N#C/C(=C\c1ccc(O)c(O)c1)C(=O)NCCc1ccccc1 | no (0) |
| N=C(N)SCCc1cnc[nH]1 | no (0) |
| NC(=Nc1ccccc1)NC(=O)c1nc(Cl)c(N)nc1N | no (0) |
| CCSC(=N)N | no (0) |
| COc1cc(N)c(Cl)cc1C(=O)OCCN1CCCCC1 | no (0) |
| CN(CC[C@@H](Oc1ccc(C(F)(F)F)cc1)c1ccccc1)CC(=O)O | no (0) |
| COc1ccc(-c2cc3ncc(C)n3c(Nc3ncccc3C(N)=O)n2)cc1OC | no (0) |
| N[C@@H](Cc1c[nH]c2ccccc12)C(=O)O | no (0) |
| CN1C2CCC1CC(OC(c1ccccc1)c1ccccc1)C2 (centres undefined) | no (0) |
| CN1CCc2cc(Cl)c(O)cc2[C@@H](c2ccccc2)C1 | no (0) |
| NC(C(=O)N[C@@H]1C(=O)N2C(C(=O)O)=C(Cl)CS[C@H]12)c1ccccc1 (some centres undefined) | no (0) |
| CN1Cc2sccc2C(c2ccc(O)c(O)c2)C1 (centres undefined) | no (0) |
| COc1cc(/C=C(\C#N)C(=O)c2ccc(O)c(O)c2)cc(I)c1O | yes (1) |
| Nc1ccc(N2C(=O)c3ccccc3C2=O)c(Cl)c1 | no (0) |
| CCOC(=O)C12CC1/C(=N/O)c1ccccc1O2 (centres undefined) | no (0) |
| CCCOC(=O)c1c(-c2ccccc2)nc(CC)c(C(=O)SCC)c1CCC | yes (1) |
| O=c1[nH]ccc2c(O)cccc12 | no (0) |
| CN(C)CCC(c1ccc(Br)cc1)c1ccccn1 (centres undefined) | no (0) |
| CCCCCCCCCC(=O)NC(CN1CCOCC1)[C@H](O)c1ccccc1 (some centres undefined) | no (0) |
| N#Cc1cc([N+](=O)[O-])c2sc(C(N)=O)[n+]([O-])c2c1 | no (0) |
| O=c1[nH]c2ccccc2c2ccccc12 | no (0) |
| CCCn1c(=O)c2[nH]c(C3CCCC3)nc2n(CCC)c1=O | no (0) |
| COc1ccccc1N1CCN(CCCNc2c(C)c(=O)n(C)c(=O)n2C)CC1 | no (0) |
| O=C(O)/C=C/c1cnc[nH]1 | no (0) |
| CCCCCCCCCC[Si](C)(C)CCC(=O)NC(Cc1ccc(C)cc1)c1ccccc1 (centres undefined) | no (0) |
| CC1=C(/C=C/C(C)=C/C=C/C(C)=C\C(=O)O)C(C)(C)CCC1 | no (0) |
| C[C@]12C=CC(=O)C=C1CC[C@@H]1C2=CC[C@]2(C)[C@@H](C(=O)CN3CCN(c4cc(N5CCCC5)nc(N5CCCC5)n4)CC3)CC[C@@H]12 | no (0) |
| C=C1C[C@@]23CC[C@H]4[C@@](C)(CCC[C@@]4(C)C(=O)OC4OC(CO)C(O)C(O)C4O)[C@@H]2CC[C@]1(OC1OC(CO)C(O)C(O)C1OC1OC(CO)C(O)C(O)C1O)C3 (some centres undefined) | no (0) |
